Test: Tmax in 5XFAD transgenic B6SJLF1/J mouse brain at 10 mg/kg, ip by LC-MS/MS analysis
Format: ADME, organism-based
recorded endpoint: Tmax

* COc1ccc(-c2c(C)nc3c(N4CC[C@@H](NC(=O)Oc5ccccc5)C4)cc(C)nn23)cc1OC | 30 min

----------
pIC50: −log10 of the molar value.
Measurement record for Phosphatidylinositol 4-kinase beta (Homo sapiens); quantity recorded: pIC50.
recorded endpoint: pIC50

- COc1ccc(-c2c(C)nc3c(N4CC[C@@H](NC(C)=O)C4)cc(C)nn23)cc1OC: < 5.00
- COc1ccc(-c2c(C)nc3c(N4CC[C@@H](NC(=O)Oc5ccccc5)C4)cc(C)nn23)cc1OC: < 5.00
- COc1ccc(-c2c(C)nc3c(N4CC[C@H](NC(C)=O)C4)cc(C)nn23)cc1OC: < 5.00
